The origin of these recorded values is ChEMBL document CHEMBL5604063.

// values below are reported IC50
Target: Genome polyprotein (dengue virus type 2)
Sequence (P29990 1346-1475 limits assumed): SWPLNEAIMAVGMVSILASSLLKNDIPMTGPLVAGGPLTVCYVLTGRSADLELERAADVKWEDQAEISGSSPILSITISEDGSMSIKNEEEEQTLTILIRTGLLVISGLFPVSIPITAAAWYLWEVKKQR
Sequence (P29990 1476-2093 limits assumed): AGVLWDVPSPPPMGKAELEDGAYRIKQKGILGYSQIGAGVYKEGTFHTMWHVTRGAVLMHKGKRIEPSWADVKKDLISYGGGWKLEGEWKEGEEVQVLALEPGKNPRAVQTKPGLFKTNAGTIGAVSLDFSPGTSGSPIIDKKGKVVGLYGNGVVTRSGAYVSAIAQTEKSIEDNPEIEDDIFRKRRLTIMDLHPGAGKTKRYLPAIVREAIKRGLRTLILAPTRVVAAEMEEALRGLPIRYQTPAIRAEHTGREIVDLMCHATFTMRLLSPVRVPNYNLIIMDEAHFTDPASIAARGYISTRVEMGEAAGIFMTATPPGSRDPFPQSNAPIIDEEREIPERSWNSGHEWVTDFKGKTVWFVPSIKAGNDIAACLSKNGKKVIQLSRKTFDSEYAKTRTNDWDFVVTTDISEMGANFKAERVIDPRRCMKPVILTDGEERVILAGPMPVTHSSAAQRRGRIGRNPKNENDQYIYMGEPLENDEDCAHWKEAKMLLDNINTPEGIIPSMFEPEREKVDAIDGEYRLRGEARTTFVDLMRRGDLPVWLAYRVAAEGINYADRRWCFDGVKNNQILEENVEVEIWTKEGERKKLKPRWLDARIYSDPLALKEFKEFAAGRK
Assay type: functional, Thailand/16681/1984
testReadout: IC50

smilesstring=COc1c(Cl)cc(Cl)cc1C(=O)Nc1cccc(CN)c1 systemname="Genome polyprotein (dengue virus type 2)" testreadout=IC50 measvalue="> 99.5 µM"
smilesstring=Cc1cc(C(=O)O)c(NS(=O)(=O)c2ccc(Oc3ccccc3Cl)cc2)cc1F systemname="Genome polyprotein (dengue virus type 2)" testreadout=IC50 measvalue="8.69 µM"
smilesstring=O=C(O)c1cc(Oc2ccc(F)cc2)c(F)cc1NS(=O)(=O)c1ccc(Oc2ccccc2Cl)cc1 systemname="Genome polyprotein (dengue virus type 2)" testreadout=IC50 measvalue="3.76 µM"
smilesstring=CC(C)[C@@H]1C(=O)O[C@H]1C(=O)O systemname="Genome polyprotein (dengue virus type 2)" testreadout=IC50 measvalue="> 99.5 µM"
smilesstring=N#Cc1cc(Cl)cc(C(=O)Nc2cccc(-c3nnn[nH]3)c2)c1 systemname="Genome polyprotein (dengue virus type 2)" testreadout=IC50 measvalue="> 99.5 µM"
smilesstring=C[C@H](NC(=O)c1cccc2c1CC(=O)N2)c1cccc(S(C)(=O)=O)c1 systemname="Genome polyprotein (dengue virus type 2)" testreadout=IC50 measvalue="> 99.5 µM"
smilesstring=CS(=O)(=O)NCc1ccc(CNC(=O)[C@@H](NC(=O)OCc2ccccc2)c2ccc(OCc3ccccc3)cc2)cc1 systemname="Genome polyprotein (dengue virus type 2)" testreadout=IC50 measvalue="> 99.5 µM"
smilesstring=NCc1cccc(NC(=O)[C@H](NS(=O)(=O)CC2CCC2)c2ccc(OCc3ccccc3)cc2)c1 systemname="Genome polyprotein (dengue virus type 2)" testreadout=IC50 measvalue="> 99.5 µM"
smilesstring=Cc1cc(-c2ccc([C@@H](NC(=O)OCc3ccccc3)C(=O)Nc3cccc(CN)c3)cc2)cs1 systemname="Genome polyprotein (dengue virus type 2)" testreadout=IC50 measvalue="4.01 µM"
smilesstring=O=C(O)c1cc2c(cc1NS(=O)(=O)c1ccc(F)cc1)CCC2 systemname="Genome polyprotein (dengue virus type 2)" testreadout=IC50 measvalue="> 99.5 µM"
